# Tested on: 3 P. aeruginosa strains (APAE001, APAE002, APAE006)
# protocolDetails: Protein binding: fold change in MIC in the presence of 2% HSA and 0.05% AGP, Geomean of 3 strains
# Format: cell-based, Pseudomonas aeruginosa
# conditionSummary: MIC in the presence of 2% HSA and 0.05% AGP divided by MIC in the absence; Geomean of 3 P. aeruginosa strains (APAE001, APAE002, APAE006)
measuredEndpoint: Protein Binding PB (Geomean of fold change in MIC)
API doc: respond with a numeric literal and nothing else, no unit.

compound	valueObserved
CNC(C)(C)[C@H](NC(=O)c1ccc(C#CC#CC[C@@H](O)CO)cc1)C(=O)NO	2.0
CC(C)(N)[C@H](NC(=O)c1ccc(C#C/C=C/CO)cc1)C(=O)NO	1.3

stdin: Form field: reported Protein Binding PB (Geomean of fold change in MIC) of CN[C@H](C)[C@H](NC(=O)c1ccc(C#CC#CCCO)cc1)C(=O)NO
stdout: 2.0

stdin: Form field: reported Protein Binding PB (Geomean of fold change in MIC) of CC(C)(N)[C@H](NC(=O)c1ccc(C#CC#CC[C@H](O)CO)cc1)C(=O)NO
stdout: 2.3

stdin: Form field: reported Protein Binding PB (Geomean of fold change in MIC) of CC(C)(NCCO)[C@H](NC(=O)c1ccc(C#CC#CCO)cc1)C(=O)NO
stdout: 2.6

stdin: Form field: reported Protein Binding PB (Geomean of fold change in MIC) of C[C@@H](N)[C@H](NC(=O)c1ccc(C#CC#CC(O)CO)cc1)C(=O)NO (some centres unmarked)
stdout: 2.0

stdin: Form field: reported Protein Binding PB (Geomean of fold change in MIC) of CC(C)(N)[C@H](NC(=O)c1ccc(C#CC#CC2CC(O)[C@H]2CO)cc1)C(=O)NO (single isomer, unassigned) [Compound 31B]
stdout: 3.2

====

Readings of Protein Binding PB (Geomean of fold change in MIC) for the listed compounds
# Test system: 3 P. aeruginosa strains (APAE001, APAE002, APAE006)
# protocolDetails: Protein binding: fold change in MIC in the presence of 2% HSA and 0.05% AGP, Geomean of 3 strains
# Format: cell-based, Pseudomonas aeruginosa
# conditionSummary: MIC in the presence of 2% HSA and 0.05% AGP divided by MIC in the absence; Geomean of 3 P. aeruginosa strains (APAE001, APAE002, APAE006)
API doc: respond with a numeric literal and nothing else, no unit.

Examples with their reported Protein Binding PB (Geomean of fold change in MIC) follow.
compound	valueObserved
C[C@H](O)C#CC#Cc1ccc(C(=O)N[C@H](C(=O)NO)[C@@H](C)N)cc1 [Compound 41]	2
CC(C)(N)[C@H](NC(=O)c1ccc(C#CC#C[C@@H]2[C@@H](CO)[C@H]2CO)cc1)C(=O)NO [Compound 23A]	2.3
CC(C)(N)[C@H](NC(=O)c1ccc(C#CCCO)cc1)C(=O)NO [Compound 8]	0.9
CC(C)(N)[C@H](NC(=O)c1ccc(C#CC#CC(O)C2CC2CO)cc1)C(=O)NO (stereo partly shown) [Compound 26]	6.4
CC(C)(N)[C@H](NC(=O)c1ccc(C#CC#C[C@H](O)CO)cc1)C(=O)NO [Compound 61]	1.6

stdin: Form field: reported Protein Binding PB (Geomean of fold change in MIC) of CC(C)(N)[C@H](NC(=O)c1ccc(C#CC#CCO)cc1)C(=O)NO [Compound 1]
stdout: 4.1

stdin: Form field: reported Protein Binding PB (Geomean of fold change in MIC) of CC(C)(N)[C@H](NC(=O)c1ccc(C#CC#C[C@@H](O)CO)cc1)C(=O)NO [Compound 62]
stdout: 2.0
